B1: Transcriptional repressor p66-beta, residues 415 to 455; numbered along this chain, Q8WXI9 (parent)
chain: VEPFVCAQCRTDFTPHWKQEKNGKILCEQCMTSNQKKALKA

# Variants of: B1
# ASSAY_SUMMARY: abundance fitness (aPCA) (normalised: wild type 0, dead -1); higher = more abundant; growth selection in yeast, the domain comes from the species named
# CONDITION_CONTEXT: Homo sapiens
If the reported abundance fitness equals or exceeds -0.3, assign Criterion met. If not, assign Criterion not met.

{"VARIANT_NAME": "L26P", "ANSWER_LABEL": "Criterion met"}
{"VARIANT_NAME": "C27D", "ANSWER_LABEL": "Criterion not met"}
{"VARIANT_NAME": "A38S", "ANSWER_LABEL": "Criterion met"}
{"VARIANT_NAME": "N22F", "ANSWER_LABEL": "Criterion not met"}
{"VARIANT_NAME": "E2I", "ANSWER_LABEL": "Criterion not met"}
{"VARIANT_NAME": "G23C", "ANSWER_LABEL": "Criterion met"}
{"VARIANT_NAME": "L26Q", "ANSWER_LABEL": "Criterion met"}
{"VARIANT_NAME": "P3A", "ANSWER_LABEL": "Criterion met"}
{"VARIANT_NAME": "C6M", "ANSWER_LABEL": "Criterion not met"}
{"VARIANT_NAME": "P15F", "ANSWER_LABEL": "Criterion not met"}
{"VARIANT_NAME": "G23S", "ANSWER_LABEL": "Criterion met"}
{"VARIANT_NAME": "N22L", "ANSWER_LABEL": "Criterion met"}
{"VARIANT_NAME": "N22T", "ANSWER_LABEL": "Criterion met"}
{"VARIANT_NAME": "C6D", "ANSWER_LABEL": "Criterion not met"}
{"VARIANT_NAME": "C30L", "ANSWER_LABEL": "Criterion not met"}

Hello, the source for this data is the Human Domainome abundance scans (Beltran et al. 2025), in case you need it.
